Tested on: Hs578T
Test Details: Cell vitality assay (ATP assay, CellTiter-Glo)
Format: cell-based
Test Settings: Homo sapiens, Hs-578T; Hs578T, 72 h; Table IIa; read-out: IC50 ATP-Assay after 72 h Hs578T
pIC50: −log10 of the molar value.
Reported pIC50 values are given for each entry in this list.

# Compound, Target Of Assay, pIC50
data = [
    ("COc1cc2c(Oc3ccc(NS(=O)(=O)c4ccccc4Cl)cc3F)ccnc2cc1OCCCN1CCN(C)CC1", "Hs578T", "4.30 to 4.90"),
    ("COc1cc2c(Oc3ccc(NS(=O)(=O)c4ccc(C)c(F)c4)cc3F)ccnc2cc1OCCCN1CCCC(C)C1 (stereo not shown)", "Hs578T", "4.30 to 4.90"),
    ("COc1cc2c(Oc3c(Cl)cc(NS(=O)(=O)c4c(F)cccc4F)cc3Cl)ccnc2cc1OCCCN1CCN(C)CC1", "Hs578T", "≥ 4.90"),
    ("COc1cc2c(Oc3ccc(NS(=O)(=O)c4cccc(Oc5ccccc5)c4)cc3F)ccnc2cc1OCCCN1CCCCC1", "Hs578T", "4.30 to 4.90"),
]
